Assay method text: Half-life in CD-1 mouse at 10 mg/kg, po
Type: ADME, organism-based
Recorded conditions: in vivo
Measured attribute: half-life (h)

| Molecule | Result |
| --- | --- |
| CC(c1c[nH]c(=O)c2ccccc12)N(C)C(=O)Nc1ccc(F)c(Cl)c1 (configuration not stated) | 2.2 |
| C[C@H](c1c[nH]c(=O)c2cc(F)c(F)cc12)N(C)C(=O)Nc1ccc(F)c(C#N)c1 | 3.1 |

====

Assay method text: Half-life in rat at 10 mg/kg, po
Format: ADME, organism-based
Recorded conditions: in vivo

| Mol | Units text | half-life |
| --- | --- | --- |
| C[C@H](c1c[nH]c(=O)c2cc(F)c(F)cc12)N(C)C(=O)Nc1ccc(F)c(C#N)c1 | h | 4.4 |

====

Assay method text: Microsomal stability in mouse liver microsomes assessed as intrinsic clearance
Type: ADME, Microsome
Recorded conditions: read-out: CLH

| Molecule | Units text | microsomal CLint |
| --- | --- | --- |
| C[C@H](c1c[nH]c(=O)c2c(F)c(F)ccc12)N(C)C(=O)Nc1ccc(F)c(Cl)c1 | µL/min/mg | 32 |
| C[C@H](c1c[nH]c(=O)c2cc(F)c(F)cc12)N(C)C(=O)Nc1cccc(F)c1 | µL/min/mg | 35 |
| CCCCN(C(=O)Nc1ccc(F)c(Cl)c1)C(C)c1c[nH]c(=O)c2ccccc12 (stereo not given) | µL/min/mg | 243 |
| C[C@H](c1c[nH]c(=O)c2cc(F)c(F)cc12)N(C)C(=O)[C@@H]1Cc2ccccc2N1 | µL/min/mg | 375 |
| COCCCN(C(=O)Nc1ccc(F)c(Cl)c1)C(C)c1c[nH]c(=O)c2ccccc12 (stereo not given) | µL/min/mg | 182 |

====

Assay method text: Clearance in monkey at 2 mg/kg, iv
Type: ADME, organism-based, Macaca mulatta
Recorded conditions: rhesus monkey, in vivo

| Mol | clearance [mL/min/kg] |
| --- | --- |
| C[C@H](c1c[nH]c(=O)c2cc(F)c(F)cc12)N(C)C(=O)Nc1ccc(F)c(C#N)c1 | 9 |

====

Assay method text: AUC (0 to infinity) in CD-1 mouse at 10 mg/kg, po
Type: ADME, organism-based
Recorded conditions: in vivo

| Molecule | AUC(0-inf) [ng·h/mL] |
| --- | --- |
| C[C@H](c1c[nH]c(=O)c2cc(F)c(F)cc12)N(C)C(=O)Nc1ccc(F)c(C#N)c1 | 13000 |
| CC(c1c[nH]c(=O)c2ccccc12)N(C)C(=O)Nc1ccc(F)c(Cl)c1 (configuration not stated) | 13800 |

====

Test system: Hepatitis B virus
Assay method text: Antiviral activity against HBV infected in HepDE19 cells
Format: functional, organism-based
Reported EC50 values for the following compounds.
Measured attribute: EC50 (nM)

| Compound | Measured attribute | Result |
| --- | --- | --- |
| C[C@H](c1c[nH]c(=O)c2cc(F)c(F)cc12)N(C)C(=O)c1cc2ccccc2[nH]1 | EC50 | 23 |
| C[C@H](c1c[nH]c(=O)c2cc(F)c(F)cc12)N(C)C(=O)[C@@H]1Cc2ccccc2N1 | EC50 | 22 |
| CC(c1c[nH]c(=O)c2ccccc12)N(CCCO)C(=O)Nc1ccc(F)c(Cl)c1 (centres undefined) | EC50 | 10 |
| CCN(Cc1c[nH]c(=O)c2ccccc12)C(=O)Nc1ccc(F)c(Cl)c1 | EC50 | 160 |
| C[C@H](c1c[nH]c(=O)c2c(F)cccc12)N(C)C(=O)Nc1ccc(F)c(Cl)c1 | EC50 | 40 |
| C[C@H](c1c[nH]c(=O)c2cc(F)c(F)cc12)N(C)C(=O)c1cc2ccc(F)cc2[nH]1 | EC50 | 22 |
| COc1ccc2c([C@@H](C)N(C)C(=O)Nc3ccc(F)c(Cl)c3)c[nH]c(=O)c2c1 | EC50 | 180 |
| C[C@H](c1c[nH]c(=O)c2cc(F)c(F)cc12)N(C)C(=O)Nc1ccc(F)cc1 | EC50 | 24 |
| CCCN(Cc1c[nH]c(=O)c2ccccc12)C(=O)Nc1ccc(F)c(Cl)c1 | EC50 | 60 |
| C[C@H](c1c[nH]c(=O)c2cc(F)c(F)cc12)N(C)C(=O)c1nc2ccccc2[nH]1 | EC50 | 760 |
| COCCCN(C(=O)Nc1ccc(F)c(Cl)c1)C(C)c1c[nH]c(=O)c2ccccc12 (centres undefined) | EC50 | 32 |
| O=C(NCc1c[nH]c(=O)c2ccccc12)Nc1ccc(F)c(Cl)c1 | EC50 | 6800 |
| COc1ncc(CN(C)C(=O)Nc2ccc(F)c(Cl)c2)c2ccccc12 | EC50 | 2000 |
| CC(c1c[nH]c(=O)c2ccccc12)N(C(=O)Nc1ccc(F)c(Cl)c1)C1CC1 (centres undefined) | EC50 | 55 |
| CCCN(C(=O)Nc1ccc(F)c(Cl)c1)[C@H](C)c1c[nH]c(=O)c2ccccc12 | EC50 | 9 |
| CN(Cc1c[nH]c(=O)c2ccccc12)C(=O)Nc1ccc(F)c(Cl)c1 | EC50 | 470 |
| Cc1cc(NC(=O)N(C)[C@H](C)c2c[nH]c(=O)c3cc(F)c(F)cc23)ccc1F | EC50 | 7 |
| COCCN(Cc1c[nH]c(=O)c2ccccc12)C(=O)Nc1ccc(F)c(Cl)c1 | EC50 | 470 |
| COCCN(C(=O)Nc1ccc(F)c(Cl)c1)C(C)c1c[nH]c(=O)c2ccccc12 (centres undefined) | EC50 | 91 |
